The measured values listed here are drawn from patent US20240292837A1.

- Test system: Aedes albopictus
- Assay summary: Evaluation of the repellent and/or attractant effect in a tunnel olfactometer
- Assay type: in vivo
- Condition: dose 5 mg/ml; 15 females
Measured parameter: Treated/Product (±SD), mean number of mosquitoes in the treated zone

CCC(C)Oc1ccc2c(=O)ccoc2c1 (racemic) :: 3.3
CC[C@H](C)Oc1ccc2c(=O)ccoc2c1 [S-(+)-sec-butoxychromone] :: 9.0
CCCCCCCC(C)Oc1ccc2c(=O)ccoc2c1 (racemic) :: 10.4
CCC[C@H](C)Oc1ccc2c(=O)ccoc2c1 [S-(+)-sec-pentoxychromone] :: 9.5
CCCC(C)Oc1ccc2c(=O)ccoc2c1 (racemic) :: 9.5
